Data credit: paper PMC9879382

# assayed.system: mouse sEH (Mus musculus)
# protocol.details: sEH inhibition assay
# Assay type: biochemical
# condition.details: read-out: Mouse sEH IC50; mouse sEH, CMNPC 5 μM, pH 7.4, 30 °C
quantity.measured: IC50 (µM)
Answer in µM, number only, no unit symbol.

Q) Param item = O=C(Nc1ccc(-c2nc3ccccc3s2)cc1)C1CCN(S(=O)(=O)c2ccc(C(F)(F)F)cc2Cl)CC1 ; retrieve measured IC50.
A) 9.06

###

# protocol.details: Microsomal liver stability assay, human
# Type: in vitro ADME
# condition.details: human liver microsomes, pH 7.4
quantity.measured: microsomal CLint at 1 μM (µL/min/mg)
Answer in µL/min/mg, number only, no unit symbol.

Q) Param item = O=C(Nc1ccc(-c2nc3ccccc3s2)cc1)C1CCN(S(=O)(=O)c2ccccc2C(F)(F)F)CC1 ; retrieve measured microsomal CLint at 1 μM.
A) 57

###

Measured pIC50 accompanies every entry in the list below.
# assayed.system: mouse sEH (Mus musculus, UniProt P34914)
# protocol.details: sEH inhibition assay
# Type: biochemical
Keep it numeric: pIC50 is minus log10 of the concentration in mol/L.

compound: O=C(Nc1ccc(-c2nc3ccccc3s2)cc1)C1CCN(S(=O)(=O)c2ccc(F)cc2Br)CC1 [Compound 7h]
assayed.system: mouse sEH (Mus musculus, UniProt P34914)
pIC50: 6.40

compound: O=C(Nc1ccc(-c2nc3ccccc3s2)cc1)C1CCN(S(=O)(=O)c2ccccc2C(F)(F)F)CC1 [Compound 7a]
assayed.system: mouse sEH (Mus musculus, UniProt P34914)
pIC50: 5.14

Kindly review the next compound as well.
Q) Param item = N#Cc1ccccc1S(=O)(=O)N1CCC(C(=O)Nc2ccc(-c3nc4ccccc4s3)cc2)CC1 [Compound 7b] ; retrieve measured pIC50.
A) 6.24

###

# protocol.details: Microsomal liver stability assay, mouse
# Type: in vitro ADME
# condition.details: microsomes, pH 7.4
quantity.measured: microsomal CLint at 1 μM
Returns: string containing the numeric result and its unit.

Q) Param item = C[C@]12CC[C@H]3[C@@H](CCC4=CC(=O)CC[C@@]43C)[C@@H]1CC[C@@H]2O [Testosterone (control), testosterone, reference compound] ; retrieve measured microsomal CLint at 1 μM.
A) 280 µL/min/mg

###

# protocol.details: Microsomal liver stability assay, human
# Type: in vitro ADME
# condition.details: microsomes, pH 7.4
quantity.measured: microsomal CLint at 1 μM (µL/min/mg)
Answer in µL/min/mg, number only, no unit symbol.

Q) Param item = C[C@]12CC[C@H]3[C@@H](CCC4=CC(=O)CC[C@@]43C)[C@@H]1CC[C@@H]2O [Testosterone (control), testosterone, reference compound] ; retrieve measured microsomal CLint at 1 μM.
A) 61

###

# protocol.details: Microsomal liver stability assay, mouse
# Assay type: in vitro ADME
# condition.details: mouse liver microsomes, pH 7.4
quantity.measured: half-life at 1 μM (min)
Answer in min, number only, no unit symbol.

Q) Param item = O=C(Nc1ccc(-c2nc3ccccc3s2)cc1)C1CCN(S(=O)(=O)c2ccccc2C(F)(F)F)CC1 [Compound 7a] ; retrieve measured half-life at 1 μM.
A) 15.8

###

# assayed.system: mouse sEH (Mus musculus)
# Sequence (P34914 1-554): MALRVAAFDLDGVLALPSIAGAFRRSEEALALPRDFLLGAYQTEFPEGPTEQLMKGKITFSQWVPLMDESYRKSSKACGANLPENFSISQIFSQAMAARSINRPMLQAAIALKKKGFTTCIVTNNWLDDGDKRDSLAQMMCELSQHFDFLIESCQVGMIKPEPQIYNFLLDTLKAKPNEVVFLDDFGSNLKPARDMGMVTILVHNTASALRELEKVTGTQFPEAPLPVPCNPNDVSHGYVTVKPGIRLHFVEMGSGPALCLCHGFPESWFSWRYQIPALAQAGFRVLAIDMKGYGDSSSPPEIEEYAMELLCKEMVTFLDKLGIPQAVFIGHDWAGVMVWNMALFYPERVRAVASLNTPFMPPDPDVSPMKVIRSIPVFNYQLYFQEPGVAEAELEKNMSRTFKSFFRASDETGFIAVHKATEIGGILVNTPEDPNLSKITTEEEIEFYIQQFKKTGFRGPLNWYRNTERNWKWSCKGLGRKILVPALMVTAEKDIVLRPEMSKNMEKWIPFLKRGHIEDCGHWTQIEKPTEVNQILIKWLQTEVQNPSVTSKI
# protocol.details: sEH inhibition assay
# Format: biochemical
Measured IC50 accompanies every entry in the list below.
Answer in µM, number only, no unit symbol.

# annotated cases, reported IC50 shown
compound.string: O=C(Nc1ccc(-c2nc3ccccc3s2)cc1)C1CCN(S(=O)(=O)c2ccc(C(F)(F)F)cc2)CC1
IC50 / µM: 9.18
//
compound.string: O=C(Nc1ccc(-c2nc3ccccc3s2)cc1)C1CCN(S(=O)(=O)c2ccc(F)cc2Cl)CC1
IC50 / µM: 0.267

Q) Provide value of IC50 for this record tested with mouse sEH (Mus musculus): O=C(Nc1ccc(-c2nc3ccccc3s2)cc1)C1CCN(S(=O)(=O)c2c(Cl)cc(Br)cc2Cl)CC1
A) 1.79

Q) Provide value of IC50 for this record tested with mouse sEH (Mus musculus): O=C(Nc1ccc(-c2nc3ccccc3s2)cc1)C1CCN(S(=O)(=O)c2cccc(C(F)(F)F)c2)CC1
A) 4.31

###

# protocol.details: Microsomal liver stability assay, rat
# Assay type: in vitro ADME
# condition.details: both, microsomes, pH 7.4
quantity.measured: half-life at 1 μM (min)
Answer in min, number only, no unit symbol.

Q) Param item = C[C@]12CC[C@H]3[C@@H](CCC4=CC(=O)CC[C@@]43C)[C@@H]1CC[C@@H]2O [Testosterone (control), testosterone, reference compound] ; retrieve measured half-life at 1 μM.
A) 1.1
